Provenance of the data: PubChem BioAssay AID248

system: L1210 leukemia ip in BDF1 mice, survival T/C; test: NCI In Vivo Anticancer Drug Screen. Data for tumor model L1210 Leukemia (intraperitoneal) in B6D2F1 (BDF1) mice; conditions: endpoint: mean survival time; dose: 100.0 mg/kg/injection; schedule: Q04DX003 (ip); vehicle: Klucel (hydroxypropylcellulose) (HPC); higher = longer survival
Inconclusive results and toxic doses are left out.
Provide the recorded T/C for the entries that follow.

Would you please look over these solved cases?
Cc1cc(C)n(N=C2CCCCC2)c(=O)c1C#N; 100 % of control
Cc1ccc(NC(=O)Nc2ccccc2Cl)cc1Cl; 112 % of control
c1ccc(-c2ccc([Si](c3ccccc3)(c3ccccc3)c3ccc(-c4ccccc4)cc3)cc2)cc1; 96 % of control
CC(C)=CCOC(N)=O; 95 % of control
O=C(N/N=C/c1ccc2c(c1)CCC2)c1cccc(O)c1; 96 % of control
CNC(=O)Nc1ccccc1C(=O)OC; 97 % of control

Next compound, T/C to be filled in.
Notebook: `O=C(NCc1ccccc1)c1ccccc1` , T/C read as 97 % of control

###

tested on: L1210 leukemia ip in BDF1 mice, survival T/C; test: NCI In Vivo Anticancer Drug Screen. Data for tumor model L1210 Leukemia (intraperitoneal) in B6D2F1 (BDF1) mice; details: endpoint: mean survival time; dose: 100.0 mg/kg/injection; schedule: Q04DX003 (ip); vehicle: saline; higher = longer survival
Toxic doses and inconclusive results are not listed.
observation.type: T/C

Would you please look over these solved cases?
Nn1cn[nH]c1=S; 98 % of control
CC(C)N1CN(C(C)C)CN(C(C)C)C1; 87 % of control
CCC(=O)N1CCOCC1; 102 % of control
O=C(O)CN1C(=O)C2CC=CCC2C1=O (centres undefined); 96 % of control
COc1cccc(CC2=NCCc3cc(OC)c(OC)cc32)c1; 98 % of control

Dear reader, for each entry below, please note its T/C.
1. NC(CCc1cc(O)ccc1O)C(=O)O (centres undefined)
2. NC(=O)N1C(=O)C2C3C=CC(O3)C2C1=O (centres undefined)
3. CNC(C)(C)CO
4. O=C(Cc1ccccn1)c1ccccn1
5. Sc1ccc2ccccc2c1
6. CCO/N=C(/N)N=C(N)N
7. Nc1ccc(N=Nc2ccc(C(=O)Nc3ccc4cc(S(=O)(=O)O)ccc4c3)cc2)c(N)c1N=Nc1ccc(N=Nc2ccc(O)c(C(=O)O)c2)cc1
8. CC(C)NC(=O)C1C2CC3OC(=O)C1C3C2 (centres undefined)

Result:
105 % of control
98 % of control
100 % of control
100 % of control
91 % of control
95 % of control
102 % of control
98 % of control

###

test system: L1210 leukemia ip in BDF1 mice, survival T/C; assay: NCI In Vivo Anticancer Drug Screen. Data for tumor model L1210 Leukemia (intraperitoneal) in B6D2F1 (BDF1) mice; settings: endpoint: mean survival time; dose: 200.0 mg/kg/injection; schedule: Q04DX003 (ip); vehicle: Klucel (hydroxypropylcellulose) (HPC); higher = longer survival
Toxic doses and inconclusive results are not listed.
Provide the recorded T/C for the entries that follow.

Would you please look over these solved cases?
CCCCCCCCCCCCNC(=O)Nc1ccc(C)cc1C; 96 % of control
NC(=O)CC(NC(=O)OCc1ccccc1)C(N)=O (configuration not stated); 87 % of control
Cc1c(C)c(Cl)c(C)c(Cl)c1O; 93 % of control

Dear reader, for each entry below, please note its T/C.
1. CCCCNC(=O)Nc1ccc(C(=O)O)c(O)c1
2. COc1ccc(NC(=O)NCCN(C)c2ccccc2)cc1

Result:
["94 % of control", "101 % of control"]

Dear reader, for each entry below, please note its T/C.
1. O=[N+]([O-])c1ccc(OCCCOc2ccccc2)cc1
2. CCCCCCCCCCCCCCCCCCS(=O)(=O)CCCl

Result:
103 % of control
93 % of control

###

tested on: L1210 leukemia ip in BDF1 mice, survival T/C; test: NCI In Vivo Anticancer Drug Screen. Data for tumor model L1210 Leukemia (intraperitoneal) in B6D2F1 (BDF1) mice; details: endpoint: mean survival time; dose: 200.0 mg/kg/injection; schedule: Q04DX002 (ip); vehicle: saline; higher = longer survival
Toxic doses and inconclusive results are not listed.
observation.type: T/C

CCOCCOCCOC(C)Oc1cccc(OC)c1 (configuration not stated); 101 % of control
CCCCC(=O)NCC(=O)N1CCC(C(=O)NCCCCC(=O)OC)C1 (configuration not stated); 115 % of control
CC1CCCCC1C(=O)N1CCCC1 (configuration not stated); 105 % of control
CC(C)(C)C(=O)CC(=O)C(C)(C)C; 101 % of control

Dear reader, for each entry below, please note its T/C.
1. CC(C)CN(OC(=O)c1ccccc1)[N+](=O)[O-]
2. COc1ccc(C)nn1
3. CC(=O)NC(CC(N)=O)C(=O)O (configuration not stated)
4. Cc1ccnc(/C=N/NC(N)=S)c1
5. N=C(N)SCCCCCSC(=N)N

Result:
102 % of control
106 % of control
99 % of control
86 % of control
91 % of control

Dear reader, for each entry below, please note its T/C.
1. CCCOCCOCCOC(C)Oc1ccccc1OC (configuration not stated)
2. CNc1ccccc1C(=O)N/N=C/c1c(O)ccc2ccccc12
3. CCCCCCCCCc1ccc(OC(C)OCCOCCOCC)cc1 (configuration not stated)

Result:
1: 88 % of control; 2: 96 % of control; 3: 100 % of control

###

test system: L1210 leukemia ip in BDF1 mice, survival T/C; assay: NCI In Vivo Anticancer Drug Screen. Data for tumor model L1210 Leukemia (intraperitoneal) in B6D2F1 (BDF1) mice; conditions: endpoint: mean survival time; dose: 200.0 mg/kg/injection; schedule: Q01DX001 (ip); vehicle: Klucel (hydroxypropylcellulose) (HPC); higher = longer survival
Toxic doses and inconclusive results are not listed.
Provide the recorded T/C for the entries that follow.

Would you please look over these solved cases?
O=C1c2ccccc2C(=O)N1CCCCCCCCCCCCCCN1C(=O)c2ccccc2C1=O; 94 % of control
CCCCN(C(C)=O)c1ccccc1; 91 % of control
O=C1C=C(C2CCCCC2)C(=O)C2CCCCC12 (configuration not stated); 105 % of control

Dear reader, for each entry below, please note its T/C.
1. C#CCC(B1OCCO1)B1OCCO1
2. COC(=O)C12CCC(=O)CC1(O)c1ccc(OC)cc1CC2 (configuration not stated)

Result:
100 % of control
107 % of control

Dear reader, for each entry below, please note its T/C.
1. CC(=O)OCC1OC(SP(C)C)C(OC(C)=O)C(OC(C)=O)C1OC(C)=O (configuration not stated)
2. Cc1cccc(NC(=O)C2CCC(CC3CCCCC3)CC2)c1 (configuration not stated)
3. CCCCCCC1CCC(C(=O)O)CC1 (configuration not stated)
4. Cc1cc(C(O)c2ccccn2)c2ccccc2n1 (configuration not stated)
5. O=C1C(=O)c2cccc3cccc1c23
6. Nc1ncc(-c2ccccc2)nn1 (tested in a mixture with another compound)
7. O=[N+]([O-])c1ccc(C2=NC(c3ccccc3)CO2)cc1 (configuration not stated)

Result:
98 % of control
87 % of control
97 % of control
96 % of control
93 % of control
90 % of control
94 % of control

Dear reader, for each entry below, please note its T/C.
1. NOCc1cc2c(cc1Cl)OCO2
2. Cc1ccc(Cl)cc1N=Cc1cccc([N+](=O)[O-])c1
3. CCCCCOc1ccc(Nc2c3ccccc3nc3ccccc23)cc1
4. CCCCCCCCc1c(N)nc(N)[nH]c1=O
5. CC(=O)C(=Cc1ccccc1Cl)C(C)=O
6. c1ccc2c(c1)CCc1ccccc1N=N2
7. Cn1c(N)cc(=O)n(C)c1=O
8. CCOC(=O)c1ccc(Cn2c(C)cc(=O)n(Cc3ccc(C(=O)OCC)cc3)c2=O)cc1

Result:
["88 % of control", "97 % of control", "111 % of control", "92 % of control", "98 % of control", "92 % of control", "107 % of control", "94 % of control"]

Dear reader, for each entry below, please note its T/C.
1. Nc1c[nH]c(=S)s1
2. Cc1ccc(S(=O)(=O)N(C)c2cc(Cl)c(C(N)=O)c(Cl)c2)cc1

Result:
["99 % of control", "95 % of control"]

###

tested on: L1210 leukemia ip in BDF1 mice, survival T/C; assay: NCI In Vivo Anticancer Drug Screen. Data for tumor model L1210 Leukemia (intraperitoneal) in B6D2F1 (BDF1) mice; settings: endpoint: mean survival time; dose: 200.0 mg/kg/injection; schedule: Q01DX009 (ip); vehicle: saline with Tween-80; higher = longer survival
Inconclusive results and toxic doses are left out.
observation.type: T/C

Would you please look over these solved cases?
O=C1c2ccccc2S(=O)(=O)N1CC(O)COc1ccc(Cl)cc1 (stereo not drawn); 102 % of control
CCOC(=O)c1c(NC(C)=O)sc2c1CCCC2; 95 % of control
CCOc1ccccc1NC(=O)C(Br)C(Br)C(=O)O (stereo not drawn); 97 % of control
CC(C)(CBr)COC(=O)Nc1ccc2ccccc2c1; 88 % of control
CCC(=O)Nc1cccc(Cl)c1; 103 % of control
CC12CCC3(CCC4(C)C(=C3C1)CCC1C3(C)CCC(OC5OC(CO)C(O)C(O)C5O)C(C)(C)C3CCC14C)C(=O)O2 (stereo not drawn); 114 % of control
Cc1ccccc1C(O)c1cnc(C)n1Cc1ccccc1 (stereo not drawn); 103 % of control
O=C(NC1CCCC2C(NC(=O)c3ccccc3)CCCC12)c1ccccc1 (stereo not drawn); 89 % of control

Dear reader, for each entry below, please note its T/C.
1. Brc1cc(Br)c(I)c(Br)c1
2. C/C(=N\O)C(C)C
3. Cc1ccc(S(=O)(=O)OC2CC(C(=O)O)N(S(=O)(=O)c3ccc(C)cc3)C2)cc1 (stereo not drawn)
4. CCOC(=O)CCC(C)(c1ccc(O)cc1)c1ccc(O)cc1
5. COc1ccc(C2(C(=O)O)CCCC2)cc1

Result:
["101 % of control", "98 % of control", "95 % of control", "96 % of control", "96 % of control"]
